Listed below: inhibition at 1000 µM values for each entry.
Biological target: human NTPDase2 (Homo sapiens)
Sequence (Q9Y5L3 whole entry): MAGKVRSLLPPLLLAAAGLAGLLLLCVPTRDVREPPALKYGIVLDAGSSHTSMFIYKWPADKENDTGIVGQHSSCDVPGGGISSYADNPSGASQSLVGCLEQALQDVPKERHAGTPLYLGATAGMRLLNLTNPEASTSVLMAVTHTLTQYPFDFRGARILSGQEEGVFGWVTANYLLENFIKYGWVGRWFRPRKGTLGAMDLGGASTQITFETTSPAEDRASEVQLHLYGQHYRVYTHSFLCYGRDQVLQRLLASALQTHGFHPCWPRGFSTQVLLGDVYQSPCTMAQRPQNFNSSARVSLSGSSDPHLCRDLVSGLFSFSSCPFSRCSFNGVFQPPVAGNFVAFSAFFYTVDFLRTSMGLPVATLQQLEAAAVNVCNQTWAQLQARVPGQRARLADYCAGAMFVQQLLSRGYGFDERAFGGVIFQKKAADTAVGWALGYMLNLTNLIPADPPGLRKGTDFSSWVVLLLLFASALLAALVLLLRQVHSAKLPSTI
Assay: NTPDase inhibition assay by capillary electrophoresis (CE), NTPDase2
Format: biochemical
Conditions: read-out: NTPDase2 inhibition (%) at 1 mM
State just the number; it will be interpreted in %.

[
  {
    "compound": "CCOP(=O)(OCC)C(NC(=O)CNC(=O)[C@H]1O[C@@H](n2ccc(=O)[nH]c2=O)C(O)C1O)P(=O)(OCC)OCC (stereo in doubt)",
    "unit.abbrev": "%",
    "inhibition at 1000 µM": 54
  }
]

[Q] So what's the measured inhibition at 1000 µM for this one? CCOP(=O)(OCC)C(NC(=O)CCNC(=O)[C@H]1O[C@@H](n2ccc(=O)[nH]c2=O)C(O)C1O)P(=O)(OCC)OCC (stereo in doubt)
[A] 51

[Q] So what's the measured inhibition at 1000 µM for this one? CCOP(=O)(OCC)C(NC(=O)CCNC(=O)[C@H]1O[C@@H](n2cnc3c(N)ncnc32)C(O)C1O)P(=O)(OCC)OCC (stereo in doubt)
[A] 0

[Q] So what's the measured inhibition at 1000 µM for this one? CCOP(=O)(Cc1ccc(NC(=O)CNC(=O)[C@H]2O[C@@H](n3cnc4c(N)ncnc43)C(O)C2O)cc1)OCC (stereo in doubt)
[A] 0

[Q] So what's the measured inhibition at 1000 µM for this one? CCOP(=O)(OCC)C(NC(=O)CCCNC(=O)[C@H]1O[C@@H](n2ccc(=O)[nH]c2=O)C(O)C1O)P(=O)(OCC)OCC (stereo in doubt)
[A] 54

[Q] So what's the measured inhibition at 1000 µM for this one? CCOP(=O)(OCC)C(NC(=O)CCCNC(=O)[C@H]1O[C@@H](n2cnc3c(N)ncnc32)C(O)C1O)P(=O)(OCC)OCC (stereo in doubt)
[A] 0
